- assay-remarks: Tissue distribution of THP, DHC and protopine in rat tissues after gastric gavage administration (HPLC-UV, non-compartmental analysis)
- Assay type: in vivo, Wistar male rats
- experimental-setup: male, Wistar, po, 26.1 mg/kg, rat heart, read-out: Cmax of DHC
experimental-readout: Cmax (ng/mL)
# unit: ng/mL | format: bare number

// COc1cc2c(cc1OC)-c1c(C)c3ccc(OC)c(OC)c3c[n+]1CC2 [DHC, dehydrocorydaline] : Cmax value = 440

* * *

- assay-remarks: Tissue distribution of THP, DHC and protopine in rat tissues after gastric gavage administration (HPLC-UV, non-compartmental analysis)
- Format: in vivo, Wistar male rats
- experimental-setup: male, Wistar, po, 6.45 mg/kg, rat lung, read-out: Tmax of THP
experimental-readout: Tmax (min)
# unit: min | format: bare number

// COc1cc2c(cc1OC)[C@@H]1Cc3ccc(OC)c(OC)c3CN1CC2 [THP, tetrahydropalmatine] : Tmax value = 15.6

src = paper PMC6268586
